Biological target: chemokine receptor CXCR7 (UniProt P25106 1-362, limits assumed)
Sequence (P25106 whole entry): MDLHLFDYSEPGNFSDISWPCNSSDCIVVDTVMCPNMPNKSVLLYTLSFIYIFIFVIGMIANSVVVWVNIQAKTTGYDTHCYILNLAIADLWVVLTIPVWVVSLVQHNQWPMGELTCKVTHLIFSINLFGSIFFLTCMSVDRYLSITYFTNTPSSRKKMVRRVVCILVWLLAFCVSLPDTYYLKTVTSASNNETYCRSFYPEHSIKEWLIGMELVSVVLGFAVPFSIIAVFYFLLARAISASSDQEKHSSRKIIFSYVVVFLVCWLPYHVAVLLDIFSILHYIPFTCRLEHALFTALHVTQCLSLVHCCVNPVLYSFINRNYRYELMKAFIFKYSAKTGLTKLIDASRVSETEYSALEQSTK
Assay: cell-based or functional assay
Square brackets hold non-standard residues; d marks the D form. dPro(cis-4-NH2) = N[C@H]1CN[C@@H](C(=O)O)C1; 1Nal = N[C@@H](Cc1cccc2ccccc12)C(=O)O; 2Nal = N[C@@H](Cc1ccc2ccccc2c1)C(=O)O; Pro(3S-OH) = O=C(O)[C@H]1NCC[C@@H]1O; Tic = O=C(O)[C@@H]1Cc2ccccc2CN1
measured_attribute: β-Arrestin EC50 (nM)
# unit: nM | format: bare number

Solved entries:
GET /values?readout=β-Arrestin EC50&item= cyclo(I[dR]R[2Nal][dP][Pro(3S-OH)]) (SMILES CC[C@H](C)[C@@H]1NC(=O)[C@@H]2[C@@H](O)CCN2C(=O)[C@H]2CCCN2C(=O)[C@H](Cc2ccc3ccccc3c2)NC(=O)[C@H](CCCNC(=N)N)NC(=O)[C@@H](CCCNC(=N)N)NC1=O) [cyclo(-Ile-^DArg-Arg-2Nal-^DPro-Pro((3S)OH)-)] 76.8

GET /values?readout=β-Arrestin EC50&item= cyclo([1Nal][dR]RW[dP]T) (SMILES C[C@@H](O)[C@@H]1NC(=O)[C@H]2CCCN2C(=O)[C@H](Cc2c[nH]c3ccccc23)NC(=O)[C@H](CCCNC(=N)N)NC(=O)[C@@H](CCCNC(=N)N)NC(=O)[C@H](Cc2cccc3ccccc23)NC1=O) [cyclo(-1Nal-^DArg-Arg-Trp-^DPro-Thr-)] 28.5

Shifting focus to the binder that follows.
GET /values?readout=β-Arrestin EC50&item= cyclo(R[dF]WR[dPro(cis-4-NH2)][Tic]) (SMILES N=C(N)NCCC[C@@H]1NC(=O)[C@@H]2Cc3ccccc3CN2C(=O)[C@H]2C[C@@H](N)CN2C(=O)[C@H](CCCNC(=N)N)NC(=O)[C@H](Cc2c[nH]c3ccccc23)NC(=O)[C@@H](Cc2ccccc2)NC1=O) [cyclo(-Arg-^DPhe-Trp-Arg-^DPro((4R)NH2)-Tic-)] 248
